System: NCI-H460
Assay Overview: NCI tumour cell line growth inhibition, 48 h
Active and inactive are the calls of the source. Rule as the data show it: active = GI50 up to about 1.1 µM and inactive = higher.
Overview of reported GI50 across a group of molecules:

| Molecule | GI50 |
| --- | --- |
| Cc1nc2ccccc2c(=O)n1/N=C(\N=N\c1ccc(Cl)cc1)c1cccc(-c2ccco2)c1 | 37.7 µM (inactive) |
| O=C1c2ccccc2C(=O)c2sc(Nc3ccccc3C(F)(F)F)nc21 | 21.8 µM (inactive) |
| CCOC(=O)COc1cccc2c1C(=O)CCO2 | > 100 µM (inactive) |
| CCCNC1CC(n2cc(C)c(=O)[nH]c2=O)OC1CO (stereo unspecified) | > 100 µM (inactive) |
| Cc1cc2c(C=O)n[nH]c2c(C#N)c1C | 46.6 µM (inactive) |
| COc1cccc(-c2cc(O)c3cc(N4CCN(C)CC4)ccc3n2)c1 | 2.99 µM (inactive) |
| COc1ccc(CC2NCCc3cc(OC)c(OC)cc32)cc1 (stereo unspecified) | > 100 µM (inactive) |
| O=C(CCCn1cnc([N+](=O)[O-])n1)NCCn1ccnc1[N+](=O)[O-] | > 100 µM (inactive) |
| Cc1cc2c(c(C(=O)O)c1C)-c1cccc(F)c1C2=O | > 100 µM (inactive) |
| CCN1CC2(COC)C(O)CC(OC)C34C5CC6(O)C(OC)C=C(C5C6OC(=O)c5ccc(OC)c(OC)c5)C(C(OC)C23)C14 (stereo unspecified) | > 7.5 µM (inactive) |
| COc1ccc2nc3c4c(nccc4c2c1)-c1ncccc1C3=O | 0.0261 µM (active) |

====

Test system: SK-MEL-2
Assay Overview: NCI tumour cell line growth inhibition, 48 h
Active and inactive are the calls of the source. No stated cut-off is given here; in the data, active = GI50 up to about 1.1 µM and inactive = higher.
Attribute Measured: GI50

| Molecule | Attribute Measured | Value Measured |
| --- | --- | --- |
| CCOC(=O)COc1cccc2c1C(=O)CCO2 | GI50 | > 100 µM (inactive) |
| Cc1c2nc3ccccc3sc-2cc(=O)c1C | GI50 | 14.4 µM (inactive) |
| CC1=C(C(=O)Nc2ccccc2C)C(c2ccccc2O)C(C(=O)Nc2ccccc2C)=C(C)N1 | GI50 | 17.1 µM (inactive) |
| CCCCC(=O)Oc1ccc2c(C)cc(=O)oc2c1 | GI50 | > 100 µM (inactive) |
| CNS(=O)(=O)NN(C)S(=O)(=O)c1ccc2ccccc2c1 | GI50 | > 100 µM (inactive) |
| Cc1[nH]c2ccccc2c1C1Cc2ccccc2N1C(=O)/C=C/C=C/c1ccccc1 (stereo unspecified) | GI50 | > 100 µM (inactive) |
| N#C/C(=C\c1cn(Cc2ccccc2)c2ccccc12)c1nn(-c2ccccc2)c(N)c1C#N | GI50 | 4.65 µM (inactive) |
| Cn1c(=S)c2nc(SCc3cccnc3)[nH]c2n(C)c1=O | GI50 | > 100 µM (inactive) |
| COc1ccc(/C=C2\CCC/C(=C\c3ccc(O)c(CN4CCCCC4)c3)C2=O)cc1 | GI50 | 11.2 µM (inactive) |
| CC1=CC(O)(c2ccccc2)C(N2CCOCC2)N1O (stereo unspecified) | GI50 | 81.1 µM (inactive) |
| O=C1c2ccccc2C(=O)N1C/C=N/NS(=O)(=O)c1ccc(Cl)cc1 | GI50 | > 100 µM (inactive) |

====

Test system: RXF 631
Assay Overview: NCI tumour cell line growth inhibition, 48 h
Calls of active or inactive are those of the source. Cut-off read from the data, not from the text of the source: active = GI50 up to about 1.1 µM and inactive = higher.

| Molecule | GI50 |
| --- | --- |
| C/C(CC(=O)Nc1ccc(C)c(C)c1)=N\NC(N)=S | > 100 µM (inactive) |
| N#CC(C(=N/O)/C(=N\O)C(C#N)c1ccccc1)c1ccccc1 (stereo not given) | > 100 µM (inactive) |
| Cc1[nH]c(=O)nc(N(CCO)/N=C/c2ccccc2Cl)c1C(=O)Nc1cc(Cl)cc(Cl)c1 | 29.2 µM (inactive) |
| Cc1ccc(S(=O)(=O)c2ccccc2[N+](=O)[O-])cc1 | 49.1 µM (inactive) |
| O=C1c2ccccc2C(=O)N1C/C=N/NS(=O)(=O)c1ccc(Cl)cc1 | > 100 µM (inactive) |
| CCOC(=O)c1cn2c([nH]c3ccccc32)c(C#N)c1=O | > 100 µM (inactive) |
| Cc1cc2c(c(C(=O)O)c1C)-c1cccc(F)c1C2=O | > 100 µM (inactive) |
| C[Si](C)(C)/C(Br)=C\CCN1C(=O)CCC1=O | > 100 µM (inactive) |
| N#CCCN(c1ccc(/C=N/c2ccccc2Cl)cc1)S(=O)(=O)c1ccccc1 | > 100 µM (inactive) |
| CN[C@@H](C)[C@@H](N)c1ccccc1 | > 100 µM (inactive) |
| CCCSS[C@H]1NC(=O)[C@H]1NC(=O)COc1ccccc1 | 17.5 µM (inactive) |
| CC1(C)C(=NNC(=S)NN)C(C)(C)C1=NNC(=S)NN | > 100 µM (inactive) |
| C/C=C/C1(NS(=O)(=O)c2ccc(C)cc2)CCC(C(C)(C)C)CC1 (stereo not given) | 24.7 µM (inactive) |
| COc1ccccc1C(=O)N(Cc1ccccc1)c1ccc(Cl)c(C(=O)OC(C)C)c1 | 17 µM (inactive) |
| CCOC(=O)C(=Cc1cc(OC)ccc1OC)C(=O)OCC | 5.81 µM (inactive) |

====

Test system: EKVX
Assay Overview: NCI tumour cell line growth inhibition, 48 h
Active and inactive are the calls of the source. Cut-off read from the data, not from the text of the source: active = GI50 up to about 1.1 µM and inactive = higher.
Labels: label 1 for active, label 0 for inactive

| Molecule | Group Label |
| --- | --- |
| CCOC(=O)C(C(=O)c1ccccc1C(=O)OC)=P(c1ccccc1)(c1ccccc1)c1ccccc1 | label 0 |
| COc1nc(O)nc2c1C(c1ccc([N+](=O)[O-])cc1)c1c(OC)nc(O)nc1O2 | label 0 |
| COc1c(N2CCCCC2)c2c(=O)c3ccccc3oc2c2c3ccccc3n(C)c12 | label 0 |
| COc1ccc(CN2CC(C)(C)C2=O)c(OC)c1 | label 0 |
| CCC1(O)C(=O)OCc2c1cc1n(c2=O)Cc2cc3cc(N)ccc3nc2-1 (stereo unspecified) | label 1 |
| Cc1cc(-c2nc3c(F)cccc3s2)ccc1N | label 0 |
| Cc1cc(N(CCC#N)CCC#N)ccc1/C=C(\NC(=O)/C=C/c1ccccc1)C(=O)N=[N+]=[N-] | label 0 |
| CC(Br)C(=O)NN1C2=C(Nc3ccccc31)c1cccc3cccc2c13 (stereo unspecified) | label 0 |
| O=C1CCCC/C1=C1\C(=O)Nc2cc(F)ccc21 | label 0 |
| O=C(O)c1cccc2c1/C(=N/Nc1ccccc1)CC2 | label 0 |
| C1CC[N+]23CCCC[N+]2(C1)CCCC3 (stereo unspecified) | label 0 |

====

Test system: TK-10
Assay Overview: NCI tumour cell line growth inhibition, 48 h
Activity calls are given as the source filed them. Rule as the data show it: active = GI50 up to about 1.1 µM and inactive = higher.
Overview of reported GI50 across a group of compounds:

| Compound | GI50 |
| --- | --- |
| O=C(COC(=O)c1ccccc1)c1ccc(Br)cc1 | 2.58 µM (inactive) |
| CCCCN(CCCC)CC(C(=O)Nc1ccc([N+](=O)[O-])cc1[N+](=O)[O-])/C(C)=N\NC(=O)C[N+](C)(C)C (stereo unspecified) | > 100 µM (inactive) |
| CC/C(=N/O)c1ccc2[nH]c3c(C)cc([N+](=O)[O-])c(C)c3c2c1 | 15.2 µM (inactive) |
| O=C(CN1C(=O)c2ccccc2C1=O)C(O)CN1C(=O)c2ccccc2C1=O (stereo unspecified) | 46.1 µM (inactive) |
| COc1cccc(C2c3cc4c(cc3OC(C)(N3CCCC3)C2C)OCO4)c1O (stereo unspecified) | 5.4 µM (inactive) |
| CNS(=O)(=O)NN(C)S(=O)(=O)c1ccc2ccccc2c1 | > 100 µM (inactive) |

====

System: Hs-578T
Assay Overview: NCI tumour cell line growth inhibition, 48 h
Active and inactive are the calls of the source. Rule as the data show it: active = GI50 up to about 1.1 µM and inactive = higher.
Labels: active, inactive

| Molecule | Group Label |
| --- | --- |
| CC1(C)NC(C(=O)c2ccccc2)=[N+]([O-])C1(O)c1ccccc1 (stereo unspecified) | inactive |
| Cn1c(=S)c2nc(SCc3cccnc3)[nH]c2n(C)c1=O | inactive |
| NC(=O)C(NC=O)c1ccccc1 (stereo unspecified) | inactive |
| CC(C)(CN1CCCCC1)C(=O)CC(SCCS(=O)(=O)O)c1ccc(Cl)c(Cl)c1 (stereo unspecified) | inactive |
| COC(=O)N/N=C(\C)C(CN1CCOCC1)C(c1ccccc1)c1cc2ccccc2oc1=O (stereo unspecified) | inactive |
| O=P1(Cc2ccccc2)c2ccccc2-c2ccccc21 | inactive |
| O=C(CC(C(=O)c1ccoc1)c1ccco1)c1ccco1 (stereo unspecified) | inactive |
| COc1cccc(-c2cc(O)c3cc(N4CCN(C)CC4)ccc3n2)c1 | active |
| CCN(CC)CCn1c2cc3c(cc2c(=O)c2cccnc21)OCO3 | inactive |
| COC(=O)CC1(O)C(C=C(C)C)C(C(=O)OC)C(=O)C(C(=O)OC)C1C(=O)OC (stereo unspecified) | inactive |
| COC1=C(N=[N+]=[N-])C(=O)c2ncccc2C1=O | inactive |
